# ASSAY: RAM signaling pathway blockade in yeast – S. cerevisiae, Pdr1DBD-CYC8 efflux-inhibited sensitized strain, primary screen (AID 1298);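 note: 0% = DMSO untreated cells without growth and 100% = 10 µM 1-NA-PP1 full growth; higher means more yeast growth rescued from 5-FOA killing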
# CONDITION_LABEL: S. cerevisiae cbk1-as DSE1-URA3 strain, 5-FOA growth OD615, 2 d; at 50 µM; stronger effect = higher value
Can you tell me RAM network inhibition for the items I'm about to list?
Give bare numbers, in %.

Some solved cases for reference:
{"COMPOUND": "Cc1ccc2occ(CN3CC4CC(C3)c3cccc(=O)n3C4)c(=O)c2c1 (centres undefined)", "UNIT_SYMBOL": "%", "MEASUREMENT": 1.61}
{"COMPOUND": "CC1(C)CC(n2[nH]c(=O)c3c2NC(=O)CSC3c2ccc(F)cc2)CCO1 (centres undefined)", "UNIT_SYMBOL": "%", "MEASUREMENT": 4.89}
{"COMPOUND": "CC12CNCC(C)(CNC1)C2O (centres undefined)", "UNIT_SYMBOL": "%", "MEASUREMENT": 2.1}

Provide the reported RAM network inhibition of each entry below, same order.
1. Cc1cc(C)n2c(Br)c(CN3CC4CC(C3)c3cccc(=O)n3C4)nc2n1 (centres undefined)
2. C=Cn1ccnc1P(=S)(c1ccn(C)c1)c1nccn1C=C
3. CCCCn1c(C)c(C(=O)OCC)c2c(CN3CCOCC3)c(O)ccc21
4. CN(C)C(=O)Oc1ccc(-c2nnco2)cc1
5. COc1cccc(N2C(=O)CC(=O)NC2=O)c1
6. O=C(c1ccccc1)c1cn(CC(=O)N2CCCC2)c2ccccc12
7. CCOc1ccc(-n2c(O)c(C=Nc3ccc(N4CCOCC4)cc3)c(=O)[nH]c2=O)cc1
8. O=C1CC(N2CC=C(c3ccccc3)CC2)C(=O)N1c1ccc(F)cc1 (centres undefined)

output:
1. -0.1
2. 1.45
3. 2.5
4. 0.73
5. 1.99
6. 4.67
7. 5.35
8. 5.39

Provide the reported RAM network inhibition of each entry below, same order.
1. O=C(c1ccc2c(c1)OCO2)N1CCC2(CC1)OCCO2
2. O=C(Cc1ccccc1)Oc1cccc(N2C(=O)CCC2=O)c1
3. CP(C)(=O)CCC(=O)O
4. Cc1ccc2c(c1)C1CN(C)CCC1N2C(=O)c1ccco1 (centres undefined)
5. O=C1OCCN1P(=O)(c1ccccc1)c1ccccc1
6. CCCCCP(=O)(O)c1ccccc1

output:
-1.11
3.42
2.22
2.85
-1.04
2.16

Provide the reported RAM network inhibition of each entry below, same order.
1. Cc1ccc2c(c1)C1CN(C)CCC1N2C(=O)Cn1nnc(-c2ccccc2F)n1 (centres undefined)
2. Cc1nc2ccc(Cl)cn2c1P(=S)(N1CCOCC1)N1CCOCC1
3. NC(=O)CN1CC(c2ccccc2)CC1=O (centres undefined)
4. Cc1cccnc1-n1c(-c2ccco2)nc2ccccc2c1=O
5. O=C1CCCC2=C1C(c1cccnc1)Nc1ccccc1N2 (centres undefined)

output:
[3.31, 5.03, 4.63, -0.22, 4.54]

Provide the reported RAM network inhibition of each entry below, same order.
1. CC(C)CC1C(C#N)=C(N)Oc2c1c(=O)oc1ccccc21 (centres undefined)
2. COc1ccc(C2C(C(=O)N3CCC4(CC3)OCCO4)c3cc(OC)c(OC)cc3C(=O)N2C)cc1 (centres undefined)

output:
1. 8.07
2. 0.93
